# Tested on: OVCAR-4
# EXPERIMENT SUMMARY: NCI tumour cell line growth inhibition, 48 h
Activity calls are given as the source filed them. Rule as the data show it: active = GI50 up to about 1.1 µM and inactive = higher.
Outcomes you can answer with include only these: True for active, False for inactive

MOLECULE: C[N+](C)(C)CC(=O)N/N=C\c1c(O)ccc2ccccc12
ASSIGNED CATEGORY: False

Check the results log: what was the call for CN1CCC2(c3ccccc3)CC(=O)/C(=C/c3ccc(Cl)c(Cl)c3)C1C2.[O-][Cl+3]([O-])([O-])O (stereo not given) ?
False

What was the test verdict on CCC1(OC(=O)CNC)C(=O)OCc2c1cc1n(c2=O)Cc2cc3ccccc3nc2-1 (stereo not given) ?
True

Entry source: ChEMBL document CHEMBL1201862
